The measured values listed here are drawn from patent US8242118B2.

Would you kindly list pIC50 for each of these compounds?
# target.desc: Human CCR3 (Homo sapiens)
# Construct: The cloned CCR3 cDNA was constructed with pcDNA3 vector and transfected into a IC562 cell line; expressed in transfected cells
# Sequence (P51677 whole entry): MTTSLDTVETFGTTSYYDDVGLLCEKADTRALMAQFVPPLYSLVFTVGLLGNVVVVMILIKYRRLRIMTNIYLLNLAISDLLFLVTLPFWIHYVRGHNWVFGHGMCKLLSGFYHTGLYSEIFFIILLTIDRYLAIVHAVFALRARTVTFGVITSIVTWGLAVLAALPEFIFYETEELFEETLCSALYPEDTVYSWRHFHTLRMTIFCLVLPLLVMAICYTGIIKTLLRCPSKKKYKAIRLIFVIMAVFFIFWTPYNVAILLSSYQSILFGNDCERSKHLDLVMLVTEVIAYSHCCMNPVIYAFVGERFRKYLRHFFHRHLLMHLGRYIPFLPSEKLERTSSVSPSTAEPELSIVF
# measurement.protocol: Receptor binding assay (RBA), [125I]-eotaxin
# particulars: human CCR3-transformed K562 cells, 0.1 nM [125I]-eotaxin; compounds of about 40 to 90% purity; read-out: Activity grade RBA (IC50 class)
# Protocol: [Determination of IC50 Values of Compounds in Receptor Binding Assay] • Human CCR3-transformed K562 cells were used. The cloned CCR3 cDNA was constructed with pcDNA3 vector and transfected into a IC562 cell line. […] The non-specific binding was determined by parallel incubation in the presence of 500 nM of non-labeled eotaxin (Cat.#23209, Genzyme Techne). […] The inhibition percent at each concentration of compound was calculated, and IC50 values were determined from the inhibition curve. […]
pIC50: −log10 of the molar value.

Problem: Quick check: pIC50 of CC(C)(C)c1cccc(Oc2ccc([N+](=O)[O-])cc2S(=O)(=O)N2CCNCC2)c1.Cl ?
Solution: 5.00 to 6.00

Problem: Quick check: pIC50 of O=[N+]([O-])c1ccc(Oc2cc(Cl)cc(Cl)c2)c(S(=O)(=O)N2CC3CCCNC3C2)c1 (stereo not drawn) ?
Solution: > 6.00

Problem: Quick check: pIC50 of CC(=O)c1cccc(Oc2ccc([N+](=O)[O-])cc2S(=O)(=O)N2CCNCC2)c1.Cl ?
Solution: < 5.00

Problem: Quick check: pIC50 of Cc1cc(Oc2ccc([N+](=O)[O-])cc2S(=O)(=O)N2CCNCC2)c(C(C)C)cc1Cl ?
Solution: < 5.00

Problem: Quick check: pIC50 of Cc1cc(C)cc(Oc2ccc(NC(=O)CCc3ccccc3)cc2S(=O)(=O)N2CCNCC2)c1 ?
Solution: < 5.00

Problem: Quick check: pIC50 of Cc1cc(C)cc(Oc2ccc([N+](=O)[O-])cc2S(=O)(=O)N2CCN(Cc3ccccc3)CC2)c1 ?
Solution: < 5.00

Problem: Quick check: pIC50 of O=[N+]([O-])c1ccc(Sc2cc(Cl)cc(Cl)c2)c(S(=O)(=O)N2CCC(N3CCCC3)CC2)c1 ?
Solution: > 6.00

Problem: Quick check: pIC50 of O=[N+]([O-])c1ccc(Oc2cc(Cl)cc(Cl)c2)c(S(=O)(=O)N2CCC(N3CCCCC3)CC2)c1 ?
Solution: > 6.00

Problem: Quick check: pIC50 of Cc1cc(C)cc(Oc2ccc([N+](=O)[O-])cc2S(=O)(=O)N2CCN(C)CC2)c1 ?
Solution: > 6.00

Problem: Quick check: pIC50 of CC(C)(C)c1cc(Oc2ccc([N+](=O)[O-])cc2S(=O)(=O)N2CCNCC2)cc(C(C)(C)C)c1.Cl ?
Solution: < 5.00

Problem: Quick check: pIC50 of O=[N+]([O-])c1ccc(Oc2ccc(Cl)c(Cl)c2)c(S(=O)(=O)N2CCNCC2)c1 ?
Solution: < 5.00

Problem: Quick check: pIC50 of Cc1cc(C)cc(Oc2ccc(NC(=O)c3cccs3)cc2S(=O)(=O)N2CCNCC2)c1 ?
Solution: < 5.00

Problem: Quick check: pIC50 of Cc1cc(C)cc(Oc2ccc([N+](=O)[O-])cc2S(=O)(=O)N2CCCNCC2)c1 ?
Solution: > 6.00

Problem: Quick check: pIC50 of O=[N+]([O-])c1ccc(Sc2cc(Cl)cc(Cl)c2)c(S(=O)(=O)N2CCC(N3CCCCC3)CC2)c1 ?
Solution: > 6.00

Problem: Quick check: pIC50 of Cl.O=[N+]([O-])c1ccc(Oc2cc(Cl)cc(Cl)c2)c(S(=O)(=O)N2CCCNCC2)c1 ?
Solution: > 6.00
